assay: Selectivity index, ratio of IC50 for sheep erythrocyte to LC50 for Leishmania donovani MHOM/SD/001S-2D promastigotes
Square brackets hold non-standard residues; d marks the D form. Peptide text beside a SMILES is read from it. Lys(Me3) = C[N+](C)(C)CCCC[C@H](N)C(=O)O
endpoint.name: Selectivity Index
Give bare numbers.

Look over these answered cases.
## Input Return value of Selectivity Index for input CC[C@H](C)[C@H](NC(=O)[C@H](CCCCN)NC(=O)[C@H](CCCC[N+](C)(C)C)NC(=O)[C@H](Cc1ccccc1)NC(=O)[C@H](CC(C)C)NC(=O)[C@H](CCCCN)NC(=O)[C@H](Cc1c[nH]c2ccccc12)NC(=O)[C@@H](N)CCCCN)C(=O)NCC(=O)N[C@@H](C)C(=O)N[C@H](C(=O)N[C@@H](CC(C)C)C(=O)N[C@@H](CCCCN)C(=O)N[C@H](C(=O)N[C@@H](CC(C)C)C(N)=O)C(C)C)C(C)C.[Cl-] (H-KWKLF[Lys(Me3)]KIGAVLKVL-NH2) , no commentary.
## Output 92.7

## Input Return value of Selectivity Index for input CC[C@H](C)[C@H](NC(=O)[C@H](CCCCN)NC(=O)[C@H](CCCC[N+](C)(C)C)NC(=O)[C@H](Cc1ccccc1)NC(=O)[C@H](CC(C)C)NC(=O)[C@H](CCCC[N+](C)(C)C)NC(=O)[C@H](Cc1c[nH]c2ccccc12)NC(=O)[C@@H](N)CCCCN)C(=O)NCC(=O)N[C@@H](C)C(=O)N[C@H](C(=O)N[C@@H](CC(C)C)C(=O)N[C@@H](CCCCN)C(=O)N[C@H](C(=O)N[C@@H](CC(C)C)C(N)=O)C(C)C)C(C)C.[Cl-].[Cl-] (H-KW[Lys(Me3)]LF[Lys(Me3)]KIGAVLKVL-NH2) , no commentary.
## Output 17.4

## Input Return value of Selectivity Index for input CC[C@H](C)[C@H](NC(=O)[C@H](CCCCN)NC(=O)[C@H](CCCCN)NC(=O)[C@H](Cc1ccccc1)NC(=O)[C@H](CC(C)C)NC(=O)[C@H](CCCC[N+](C)(C)C)NC(=O)[C@H](Cc1c[nH]c2ccccc12)NC(=O)[C@@H](N)CCCCN)C(=O)NCC(=O)N[C@@H](C)C(=O)N[C@H](C(=O)N[C@@H](CC(C)C)C(=O)N[C@@H](CCCCN)C(=O)N[C@H](C(=O)N[C@@H](CC(C)C)C(N)=O)C(C)C)C(C)C.[Cl-] (H-KW[Lys(Me3)]LFKKIGAVLKVL-NH2) , no commentary.
## Output 27.6

## Input Return value of Selectivity Index for input CC[C@H](C)[C@H](NC(=O)[C@H](CCCC[N+](C)(C)C)NC(=O)[C@H](CCCCN)NC(=O)[C@H](Cc1ccccc1)NC(=O)[C@H](CC(C)C)NC(=O)[C@H](CCCCN)NC(=O)[C@H](Cc1c[nH]c2ccccc12)NC(=O)[C@@H](N)CCCCN)C(=O)NCC(=O)N[C@@H](C)C(=O)N[C@H](C(=O)N[C@@H](CC(C)C)C(=O)N[C@@H](CCCCN)C(=O)N[C@H](C(=O)N[C@@H](CC(C)C)C(N)=O)C(C)C)C(C)C.[Cl-] (H-KWKLFK[Lys(Me3)]IGAVLKVL-NH2) , no commentary.
## Output 71.3

Others:
## Input Return value of Selectivity Index for input CC[C@H](C)[C@H](NC(=O)[C@H](CCCCN)NC(=O)[C@H](CCCCN)NC(=O)[C@H](Cc1ccccc1)NC(=O)[C@H](CC(C)C)NC(=O)[C@H](CCCCN)NC(=O)[C@H](Cc1c[nH]c2ccccc12)NC(=O)[C@@H](N)CCCC[N+](C)(C)C)C(=O)NCC(=O)N[C@@H](C)C(=O)N[C@H](C(=O)N[C@@H](CC(C)C)C(=O)N[C@@H](CCCCN)C(=O)N[C@H](C(=O)N[C@@H](CC(C)C)C(N)=O)C(C)C)C(C)C.[Cl-] (H-[Lys(Me3)]WKLFKKIGAVLKVL-NH2) , no commentary.
## Output 27.6

---

test: Selectivity index, ratio of HC50 for sheep erythrocyte to MIC50 for Acinetobacter baumannii ATCC 19606 ATCC 19606; format: functional
Square brackets hold non-standard residues; d marks the D form. Peptide text beside a SMILES is read from it. Lys(Me3) = C[N+](C)(C)CCCC[C@H](N)C(=O)O
endpoint.name: Selectivity Index
Answers are plain numbers.

## Input Return value of Selectivity Index for input CC[C@H](C)[C@H](NC(=O)[C@H](CCCCN)NC(=O)[C@H](CCCCN)NC(=O)[C@H](Cc1ccccc1)NC(=O)[C@H](CC(C)C)NC(=O)[C@H](CCCCN)NC(=O)[C@H](Cc1c[nH]c2ccccc12)NC(=O)[C@@H](N)CCCC[N+](C)(C)C)C(=O)NCC(=O)N[C@@H](C)C(=O)N[C@H](C(=O)N[C@@H](CC(C)C)C(=O)N[C@@H](CCCCN)C(=O)N[C@H](C(=O)N[C@@H](CC(C)C)C(N)=O)C(C)C)C(C)C.[Cl-] (H-[Lys(Me3)]WKLFKKIGAVLKVL-NH2) , no commentary.
## Output 59.4

---

assay: Selectivity index, ratio of HC50 for sheep erythrocyte to MIC50 for Acinetobacter baumannii ATCC 19606 ATCC 19606; assay type: functional
Square brackets hold non-standard residues; d marks the D form. Peptide text beside a SMILES is read from it. Lys(Me3) = C[N+](C)(C)CCCC[C@H](N)C(=O)O
endpoint.name: Selectivity Index

## Input Return value of Selectivity Index for input CC[C@H](C)[C@H](NC(=O)[C@H](CCCCN)NC(=O)[C@H](CCCCN)NC(=O)[C@H](Cc1ccccc1)NC(=O)[C@H](CC(C)C)NC(=O)[C@H](CCCC[N+](C)(C)C)NC(=O)[C@H](Cc1c[nH]c2ccccc12)NC(=O)[C@@H](N)CCCCN)C(=O)NCC(=O)N[C@@H](C)C(=O)N[C@H](C(=O)N[C@@H](CC(C)C)C(=O)N[C@@H](CCCCN)C(=O)N[C@H](C(=O)N[C@@H](CC(C)C)C(N)=O)C(C)C)C(C)C.[Cl-] (H-KW[Lys(Me3)]LFKKIGAVLKVL-NH2) , no commentary.
## Output 50.3

---

tested on: Acinetobacter baumannii; assay: Antimicrobial activity against Acinetobacter baumannii ATCC 19606 ATCC 19606 by turbidimetry; format: functional
Square brackets hold non-standard residues; d marks the D form. Peptide text beside a SMILES is read from it. Lys(Me3) = C[N+](C)(C)CCCC[C@H](N)C(=O)O
endpoint.name: MIC50

## Input Return value of MIC50 for input CC[C@H](C)[C@H](NC(=O)[C@H](CCCCN)NC(=O)[C@H](CCCCN)NC(=O)[C@H](Cc1ccccc1)NC(=O)[C@H](CC(C)C)NC(=O)[C@H](CCCC[N+](C)(C)C)NC(=O)[C@H](Cc1c[nH]c2ccccc12)NC(=O)[C@@H](N)CCCCN)C(=O)NCC(=O)N[C@@H](C)C(=O)N[C@H](C(=O)N[C@@H](CC(C)C)C(=O)N[C@@H](CCCCN)C(=O)N[C@H](C(=O)N[C@@H](CC(C)C)C(N)=O)C(C)C)C(C)C.[Cl-] (H-KW[Lys(Me3)]LFKKIGAVLKVL-NH2) , no commentary.
## Output 1.7 µM

## Input Return value of MIC50 for input CC[C@H](C)[C@H](NC(=O)[C@H](CCCCN)NC(=O)[C@H](CCCC[N+](C)(C)C)NC(=O)[C@H](Cc1ccccc1)NC(=O)[C@H](CC(C)C)NC(=O)[C@H](CCCCN)NC(=O)[C@H](Cc1c[nH]c2ccccc12)NC(=O)[C@@H](N)CCCCN)C(=O)NCC(=O)N[C@@H](C)C(=O)N[C@H](C(=O)N[C@@H](CC(C)C)C(=O)N[C@@H](CCCCN)C(=O)N[C@H](C(=O)N[C@@H](CC(C)C)C(N)=O)C(C)C)C(C)C.[Cl-] (H-KWKLF[Lys(Me3)]KIGAVLKVL-NH2) , no commentary.
## Output 1.4 µM

## Input Return value of MIC50 for input CC[C@H](C)[C@H](NC(=O)[C@H](CCCCN)NC(=O)[C@H](CCCCN)NC(=O)[C@H](Cc1ccccc1)NC(=O)[C@H](CC(C)C)NC(=O)[C@H](CCCCN)NC(=O)[C@H](Cc1c[nH]c2ccccc12)NC(=O)[C@@H](N)CCCCN)C(=O)NCC(=O)N[C@@H](C)C(=O)N[C@H](C(=O)N[C@@H](CC(C)C)C(=O)N[C@@H](CCCC[N+](C)(C)C)C(=O)N[C@H](C(=O)N[C@@H](CC(C)C)C(N)=O)C(C)C)C(C)C.[Cl-] (H-KWKLFKKIGAVL[Lys(Me3)]VL-NH2) , no commentary.
## Output 2.1 µM

Below are 5 molecules. Give each one its MIC50.
1. CC[C@H](C)[C@H](NC(=O)[C@H](CCCCN)NC(=O)[C@H](CCCC[N+](C)(C)C)NC(=O)[C@H](Cc1ccccc1)NC(=O)[C@H](CC(C)C)NC(=O)[C@H](CCCC[N+](C)(C)C)NC(=O)[C@H](Cc1c[nH]c2ccccc12)NC(=O)[C@@H](N)CCCCN)C(=O)NCC(=O)N[C@@H](C)C(=O)N[C@H](C(=O)N[C@@H](CC(C)C)C(=O)N[C@@H](CCCCN)C(=O)N[C@H](C(=O)N[C@@H](CC(C)C)C(N)=O)C(C)C)C(C)C.[Cl-].[Cl-] (H-KW[Lys(Me3)]LF[Lys(Me3)]KIGAVLKVL-NH2)
2. CC[C@H](C)[C@H](NC(=O)[C@H](CCCC[N+](C)(C)C)NC(=O)[C@H](CCCCN)NC(=O)[C@H](Cc1ccccc1)NC(=O)[C@H](CC(C)C)NC(=O)[C@H](CCCCN)NC(=O)[C@H](Cc1c[nH]c2ccccc12)NC(=O)[C@@H](N)CCCCN)C(=O)NCC(=O)N[C@@H](C)C(=O)N[C@H](C(=O)N[C@@H](CC(C)C)C(=O)N[C@@H](CCCCN)C(=O)N[C@H](C(=O)N[C@@H](CC(C)C)C(N)=O)C(C)C)C(C)C.[Cl-] (H-KWKLFK[Lys(Me3)]IGAVLKVL-NH2)
3. CC[C@H](C)[C@H](NC(=O)[C@H](CCCC[N+](C)(C)C)NC(=O)[C@H](CCCC[N+](C)(C)C)NC(=O)[C@H](Cc1ccccc1)NC(=O)[C@H](CC(C)C)NC(=O)[C@H](CCCCN)NC(=O)[C@H](Cc1c[nH]c2ccccc12)NC(=O)[C@@H](N)CCCCN)C(=O)NCC(=O)N[C@@H](C)C(=O)N[C@H](C(=O)N[C@@H](CC(C)C)C(=O)N[C@@H](CCCCN)C(=O)N[C@H](C(=O)N[C@@H](CC(C)C)C(N)=O)C(C)C)C(C)C.[Cl-].[Cl-] (H-KWKLF[Lys(Me3)][Lys(Me3)]IGAVLKVL-NH2)
4. CC[C@H](C)[C@H](NC(=O)[C@H](CCCCN)NC(=O)[C@H](CCCCN)NC(=O)[C@H](Cc1ccccc1)NC(=O)[C@H](CC(C)C)NC(=O)[C@H](CCCC[N+](C)(C)C)NC(=O)[C@H](Cc1c[nH]c2ccccc12)NC(=O)[C@@H](N)CCCC[N+](C)(C)C)C(=O)NCC(=O)N[C@@H](C)C(=O)N[C@H](C(=O)N[C@@H](CC(C)C)C(=O)N[C@@H](CCCCN)C(=O)N[C@H](C(=O)N[C@@H](CC(C)C)C(N)=O)C(C)C)C(C)C.[Cl-].[Cl-] (H-[Lys(Me3)]W[Lys(Me3)]LFKKIGAVLKVL-NH2)
5. CC[C@H](C)[C@H](NC(=O)[C@H](CCCCN)NC(=O)[C@H](CCCCN)NC(=O)[C@H](Cc1ccccc1)NC(=O)[C@H](CC(C)C)NC(=O)[C@H](CCCCN)NC(=O)[C@H](Cc1c[nH]c2ccccc12)NC(=O)[C@@H](N)CCCC[N+](C)(C)C)C(=O)NCC(=O)N[C@@H](C)C(=O)N[C@H](C(=O)N[C@@H](CC(C)C)C(=O)N[C@@H](CCCCN)C(=O)N[C@H](C(=O)N[C@@H](CC(C)C)C(N)=O)C(C)C)C(C)C.[Cl-] (H-[Lys(Me3)]WKLFKKIGAVLKVL-NH2)

## Output
1. 2 µM
2. 1.9 µM
3. 2.6 µM
4. 3.5 µM
5. 1.3 µM
